# Protocol Summary: Solubility
# Type: physicochemical
# Reported Conditions: water, 20° C.; read-out: solubility in water
Endpoint Name: solubility (µg/mL)
The figure you give is taken to be in µg/mL; do not add the unit.

Note to self: solubility recorded for COc1ccc(C(=O)O)cc1 [p-methoxybenzoic acid] was 300
